System: Metabolism protein genes
Test: DNA chip mRNA expression in yeast, metabolism protein genes (Table 7)
Assay type: cell-based, Saccharomyces cerevisiae S288C
Settings: yeast gene YOR178C
We begin with a simple list: items and their reported level of expressed mRNA in the presence/in the absence of chemical substance.
test readout: level of expressed mRNA in the presence/in the absence of chemical substance

| molecule | measured result |
| --- | --- |
| S=C([S-])NCCNC(=S)[S-].[Zn+2] [(11), zinc N,N′-ethylenebis(dithiocarbamate)] | 4.1 |
| N#Cc1c(Cl)c(Cl)c(Cl)c(C#N)c1Cl [(9)] | 0.2 |
| [Cl][Pb][Cl] [(4), PbCl2] | 2.3 |
| CCCCCCCCCCCCOS(=O)(=O)[O-].[Na+] [(18), sodium lauryl sulfate] | 1.5 |
| Cl[C@H]1[C@H](Cl)[C@@H](Cl)[C@@H](Cl)[C@H](Cl)[C@H]1Cl [(7), γ-hexachlorocyclohexane] | 0.9 |

---

Tested on: Metabolism protein genes
Assay: DNA chip mRNA expression in yeast, metabolism protein genes (Table 7)
Type: cell-based, Saccharomyces cerevisiae S288C
Conditions: yeast gene YMR205C
Please note: Criterion met applies when level of expressed mRNA in the presence/in the absence of chemical substance is 1 or greater, and Criterion not met applies otherwise.

| compound | answer label |
| --- | --- |
| C=CC=O | Criterion not met |
| COc1cc(CNC(=O)CCCCC=CC(C)C)ccc1O [(12), 8-methyl-N-vanillyl-6-nonenamide] | Criterion met |
| N#Cc1c(Cl)c(Cl)c(Cl)c(C#N)c1Cl | Criterion not met |
| [Cl][Cd][Cl] | Criterion not met |
| C[S+](C)[O-] [(15), dimethylsulfoxide] | Criterion not met |
| [Cl][Hg][Cl] | Criterion met |

---

Test system: Metabolism protein genes
Experiment: DNA chip mRNA expression in yeast, metabolism protein genes (Table 7)
Format: cell-based, Saccharomyces cerevisiae S288C
Conditions: yeast gene YBR011C
We begin with a simple list: items and their reported level of expressed mRNA in the presence/in the absence of chemical substance.
test readout: level of expressed mRNA in the presence/in the absence of chemical substance

| molecule | tgt | measured result |
| --- | --- | --- |
| CCCCCCCCCCCCc1ccc(S(=O)(=O)[O-])cc1.[Na+] [(17), sodium dodecylbenzosulfonate] | Metabolism protein genes | 0.8 |
| C=CC=O [(14), acrolein] | Metabolism protein genes | 0.9 |
| Cl[C@H]1[C@H](Cl)[C@@H](Cl)[C@@H](Cl)[C@H](Cl)[C@H]1Cl [(7), γ-hexachlorocyclohexane] | Metabolism protein genes | 1.1 |
| [Cl][Hg][Cl] [(3), HgCl2] | Metabolism protein genes | 2.5 |

---

We begin with a simple list: items and their reported level of expressed mRNA in the presence/in the absence of chemical substance.
Test system: Metabolism protein genes
Assay: DNA chip mRNA expression in yeast, metabolism protein genes (Table 7)
Type: cell-based, Saccharomyces cerevisiae S288C
Settings: yeast gene YMR083W
test readout: level of expressed mRNA in the presence/in the absence of chemical substance

| molecule | measured result |
| --- | --- |
| CCCCCCCCCCCCc1ccc(S(=O)(=O)[O-])cc1.[Na+] [(17), sodium dodecylbenzosulfonate] | 0.9 |
| C=CC=O | 0.8 |
| Oc1cc(Cl)c(Cl)cc1Cl | 1.8 |
| CCCCC[C@H](O)CC(=O)CCc1ccc(O)c(OC)c1 | 0.9 |
| O=[N+]([O-])c1cc[n+]([O-])c2ccccc12 [(5), 4-nitroquinolin-N-oxide] | 1.5 |

---

Tested on: Metabolism protein genes
Test: DNA chip mRNA expression in yeast, metabolism protein genes (Table 7)
Format: cell-based, Saccharomyces cerevisiae S288C
Details: yeast gene YPL028W
We begin with a simple list: items and their reported level of expressed mRNA in the presence/in the absence of chemical substance.
test readout: level of expressed mRNA in the presence/in the absence of chemical substance

| compound | measured result |
| --- | --- |
| CCCCCCCCCCCCc1ccc(S(=O)(=O)[O-])cc1.[Na+] [(17), sodium dodecylbenzosulfonate] | 1.4 |
| S=C([S-])NCCNC(=S)[S-].[Zn+2] [(11), zinc N,N′-ethylenebis(dithiocarbamate)] | 1.2 |
| [Cl][Cd][Cl] | 0.9 |
| CCCCC[C@H](O)CC(=O)CCc1ccc(O)c(OC)c1 | 0.9 |
| N#Cc1c(Cl)c(Cl)c(Cl)c(C#N)c1Cl | 1.2 |
| [Cl][Pb][Cl] | 0.9 |

---

System: Metabolism protein genes
Test: DNA chip mRNA expression in yeast, metabolism protein genes (Table 7)
Format: cell-based, Saccharomyces cerevisiae S288C
Details: yeast gene YLR006C
I'd appreciate it if you marked entries Met when level of expressed mRNA in the presence/in the absence of chemical substance is lower than 2 and Not met when it is not.

| compound | answer label |
| --- | --- |
| Oc1cc(Cl)c(Cl)cc1Cl [(6), 2,4,5-trichlorophenol] | Met |
| [Cl][Pb][Cl] [(4), PbCl2] | Not met |
| S=C([S-])NCCNC(=S)[S-].[Zn+2] [(11), zinc N,N′-ethylenebis(dithiocarbamate)] | Met |
| [Cl][Cd][Cl] [(2), CdCl2] | Met |
| Cl[C@H]1[C@H](Cl)[C@@H](Cl)[C@@H](Cl)[C@H](Cl)[C@H]1Cl [(7), γ-hexachlorocyclohexane] | Met |
| CCCCCCCCCCCCc1ccc(S(=O)(=O)[O-])cc1.[Na+] [(17), sodium dodecylbenzosulfonate] | Met |

---

We begin with a simple list: items and their reported level of expressed mRNA in the presence/in the absence of chemical substance.
System: Metabolism protein genes
Assay: DNA chip mRNA expression in yeast, metabolism protein genes (Table 7)
Assay type: cell-based, Saccharomyces cerevisiae S288C
Conditions: yeast gene YOR348C
test readout: level of expressed mRNA in the presence/in the absence of chemical substance

| compound | measured result |
| --- | --- |
| COc1cc(CNC(=O)CCCCC=CC(C)C)ccc1O [(12), 8-methyl-N-vanillyl-6-nonenamide] | 0.7 |
| C=CC=O | 1.2 |
| CCCCC[C@H](O)CC(=O)CCc1ccc(O)c(OC)c1 | 1.1 |
| Cl[C@H]1[C@H](Cl)[C@@H](Cl)[C@@H](Cl)[C@H](Cl)[C@H]1Cl | 0.8 |
| CN(C)C(=S)SSC(=S)N(C)C [(10), Tetramethylthiuram disulfide] | 0.4 |

---

System: Metabolism protein genes
Test: DNA chip mRNA expression in yeast, metabolism protein genes (Table 7)
Assay type: cell-based, Saccharomyces cerevisiae S288C
Conditions: yeast gene YLR354C
test readout: level of expressed mRNA in the presence/in the absence of chemical substance

| molecule | measured result |
| --- | --- |
| N#Cc1c(Cl)c(Cl)c(Cl)c(C#N)c1Cl | 0.4 |
| [Cl][Hg][Cl] | 2.3 |
| [Cl][Pb][Cl] | 1.5 |
| Cl[C@H]1[C@H](Cl)[C@@H](Cl)[C@@H](Cl)[C@H](Cl)[C@H]1Cl | 1.1 |
| O=[N+]([O-])c1cc[n+]([O-])c2ccccc12 [(5), 4-nitroquinolin-N-oxide] | 1.6 |

---

Test system: Metabolism protein genes
Assay: DNA chip mRNA expression in yeast, metabolism protein genes (Table 7)
Assay type: cell-based, Saccharomyces cerevisiae S288C
Conditions: yeast gene YJR077C
test readout: level of expressed mRNA in the presence/in the absence of chemical substance

| molecule | measured result |
| --- | --- |
| COc1cc(CNC(=O)CCCCC=CC(C)C)ccc1O [(12), 8-methyl-N-vanillyl-6-nonenamide] | 1.0 |
| S=C([S-])NCCNC(=S)[S-].[Zn+2] [(11), zinc N,N′-ethylenebis(dithiocarbamate)] | 1.6 |
| CCCCC[C@H](O)CC(=O)CCc1ccc(O)c(OC)c1 | 0.9 |
| N#Cc1c(Cl)c(Cl)c(Cl)c(C#N)c1Cl | 0.4 |

---

Test system: Metabolism protein genes
Test: DNA chip mRNA expression in yeast, metabolism protein genes (Table 7)
Assay type: cell-based, Saccharomyces cerevisiae S288C
Conditions: yeast gene YGL205W
We begin with a simple list: items and their reported level of expressed mRNA in the presence/in the absence of chemical substance.
test readout: level of expressed mRNA in the presence/in the absence of chemical substance

| molecule | measured result |
| --- | --- |
| CCCCCCCCCCCCOS(=O)(=O)[O-].[Na+] [(18), sodium lauryl sulfate] | 9.1 |
| CCCCC[C@H](O)CC(=O)CCc1ccc(O)c(OC)c1 | 1.0 |
| [Cl][Cd][Cl] | 0.9 |
| CCCCCCCCCCCCc1ccc(S(=O)(=O)[O-])cc1.[Na+] [(17), sodium dodecylbenzosulfonate] | 3.9 |
| C[S+](C)[O-] [(15), dimethylsulfoxide] | 2.0 |
